assay: Formation of 1,5-cz-[Ln(Lig)] from Lig and Ln^III ions (metal dependent click-zip), MOPS/NaOH buffer pH 7.0, analytical HPLC (Charts 1, 2); conditions: Gd^III; after 1 week at 80° C.; MOPS/NaOH buffer pH 7.0
Below is a list of entries, each paired with its recorded conversion to 1,5-cz-[Ln(Lig)], Gd^III value.
Respond with the bare value in %.

Here are 4 molecules together with their reported answers.
C#Cc1cccc(CN2CCN(CC(=O)O)CCN(Cc3cccc(CN=[N+]=[N-])n3)CCN(CC(=O)O)CC2)n1 [TD556]	91
C#CCN(CC#C)CCN1CCN(CC(=O)O)CCN(Cc2cc(-c3ccccc3)cc(CN=[N+]=[N-])n2)CCN(CC(=O)O)CC1 [TD669]	24
C#Cc1cccc(CN2CCN(CC(=O)O)CCN(Cc3cc(-c4ccccc4)cc(CN=[N+]=[N-])n3)CCN(CC(=O)O)CC2)n1 [TD647]	92
C#Cc1cccc(CN2CCN(CC(=O)O)CCN(Cc3cc(N(C)C)cc(CN=[N+]=[N-])n3)CCN(CC(=O)O)CC2)n1 [TD1176]	91

Now look at this one.
# conversion to 1,5-cz-[Ln(Lig)], Gd^III lookup, item [N-]=[N+]=NCc1cccc(CN2CCN(CC(=O)O)CCN(Cc3cccc(C#CC45CC6CC(CC(C6)C4)C5)n3)CCN(CC(=O)O)CC2)n1 [TD992] 61

---

assay: Formation of 1,5-cz-[Ln(Lig)] from Lig and Ln^III ions (metal dependent click-zip), MOPS/NaOH buffer pH 7.0, analytical HPLC (Charts 1, 2); conditions: Lu^III; after 1 week at 80° C.; MOPS/NaOH buffer pH 7.0
// classify: if (conversion to 1,5-cz-[Ln(Lig)], Lu^III < 10%) Condition met else Condition not met

Worked cases, answers included:
C#CCNC(=O)CN1CCN(CC(=O)O)CCN(Cc2cc(-c3ccccc3)cc(CN=[N+]=[N-])n2)CCN(CC(=O)O)CC1 [TD425]	Condition met
[N-]=[N+]=NCc1cccc(CN2CCN(CC(=O)O)CCN(Cc3cccc(C#CC4CC4)n3)CCN(CC(=O)O)CC2)n1 [TD943]	Condition not met

Field: below-cutoff. Rule: recorded conversion to 1,5-cz-[Ln(Lig)], Lu^III strictly less than 10%. Subject: C#Cc1cccc(CN2CCN(CC(=O)O)CCN(Cc3cc(C(F)(F)F)cc(CN=[N+]=[N-])n3)CCN(CC(=O)O)CC2)n1 [TD1063] Condition not met

Is 10% strictly greater than the molecule's reported conversion to 1,5-cz-[Ln(Lig)], Lu^III? molecule: C#Cc1cccc(CN2CCN(CC(=O)NCC(=O)O)CCN(Cc3cc(-c4ccccc4)cc(CN=[N+]=[N-])n3)CCN(CC(=O)NCC(=O)O)CC2)n1 [TD778] Condition not met

Quick check: conversion to 1,5-cz-[Ln(Lig)], Lu^III of [N-]=[N+]=NCc1cccc(CN2CCN(CC(=O)O)CCN(Cc3cccc(C#CC4CCNCC4)n3)CCN(CC(=O)O)CC2)n1 [TD1127] under 10%? Condition not met

---

experiment: Formation of 1,5-cz-[Ln(Lig)] from Lig and Ln^III ions (metal dependent click-zip), MOPS/NaOH buffer pH 7.0, analytical HPLC (Charts 1, 2); conditions: Sm^III; after 1 week at 80° C.; MOPS/NaOH buffer pH 7.0
Fulfilled if conversion to 1,5-cz-[Ln(Lig)], Sm^III is below 50%. Not fulfilled if not; exact matches included in Not fulfilled.

CC(C)(C)C#Cc1cccc(CN2CCN(CC(=O)O)CCN(Cc3cccc(CN=[N+]=[N-])n3)CCN(CC(=O)O)CC2)n1	Fulfilled
C#Cc1cccc(CN2CCN(CC(=O)O)CCN(Cc3cc(C(F)(F)F)cc(CN=[N+]=[N-])n3)CCN(CC(=O)O)CC2)n1	Not fulfilled
C#Cc1cccc(CN2CCN(CCC(=O)O)CCN(Cc3cccc(CN=[N+]=[N-])n3)CCN(CCC(=O)O)CC2)n1	Fulfilled
[N-]=[N+]=NCc1cccc(CN2CCN(CC(=O)O)CCN(Cc3cccc(C#CC4CCNCC4)n3)CCN(CC(=O)O)CC2)n1	Fulfilled
C#Cc1cccc(CN2CCN(CC(=O)O)CCN(Cc3cc(C(=O)OC(C)(C)C)cc(CN=[N+]=[N-])n3)CCN(CC(=O)O)CC2)n1	Fulfilled

Record C#Cc1cccc(CN2CCN(CP(=O)(O)c3ccccc3)CCN(Cc3cccc(CN=[N+]=[N-])n3)CCN(CP(=O)(O)c3ccccc3)CC2)n1 : is its conversion to 1,5-cz-[Ln(Lig)], Sm^III strictly below 50%? Fulfilled

---

assay: Formation of 1,5-cz-[Ln(Lig)] from Lig and Ln^III ions (metal dependent click-zip), MOPS/NaOH buffer pH 7.0, analytical HPLC (Charts 1, 2); details: Nd^III; after 1 week at 80° C.; MOPS/NaOH buffer pH 7.0
Rule: measured conversion to 1,5-cz-[Ln(Lig)], Nd^III below 30% gets Condition met; anything equal to or greater than 30% gets Condition not met.

[N-]=[N+]=NCc1cccc(CN2CCN(CC(=O)O)CCN(Cc3cccc(C#CC4CC4)n3)CCN(CC(=O)O)CC2)n1 [TD943]	Condition met

Dear reviewer, please state whether C#Cc1cccc(CN2CCN(CC(=O)O)CCN(Cc3cccc(CN=[N+]=[N-])n3)CCN(CP(=O)(O)O)CC2)n1 [TD714] has conversion to 1,5-cz-[Ln(Lig)], Nd^III strictly beneath 30%. Condition not met

is_below(conversion to 1,5-cz-[Ln(Lig)], Nd^III, 30%) for [N-]=[N+]=NCc1cccc(CN2CCN(CC(=O)O)CCN(Cc3cccc(C#CC4CCNCC4)n3)CCN(CC(=O)O)CC2)n1 [TD1127] ? Condition met

# strict comparison: is reported conversion to 1,5-cz-[Ln(Lig)], Nd^III < 30%? input = CC(C)(C)C#Cc1cccc(CN2CCN(CC(=O)O)CCN(Cc3cccc(CN=[N+]=[N-])n3)CCN(CC(=O)O)CC2)n1 [TD959] Condition not met

Strictly below 30% in conversion to 1,5-cz-[Ln(Lig)], Nd^III? [N-]=[N+]=NCc1cc(-c2ccccc2)cc(CN2CCN(CC(=O)O)CCN(Cc3cccc(C#CCN)n3)CCN(CC(=O)O)CC2)n1 [TD722] Condition met

Lab note: conversion to 1,5-cz-[Ln(Lig)], Nd^III threshold 30%. Does this compound come in strictly under it? C#Cc1cccc(CN2CCN(CC(=O)O)CCN(Cc3cc(C(F)(F)F)cc(CN=[N+]=[N-])n3)CCN(CC(=O)O)CC2)n1 [TD1063] Condition not met

Say whether its conversion to 1,5-cz-[Ln(Lig)], Nd^III is strictly beneath 30%. Entry: C#Cc1cccc(CN2CCN(CP(=O)(O)OCC)CCN(Cc3cccc(CN=[N+]=[N-])n3)CCN(CP(=O)(O)OCC)CC2)n1 [TD582] Condition not met

---

assay: Formation of 1,5-cz-[Ln(Lig)] from Lig and Ln^III ions (metal dependent click-zip), MOPS/NaOH buffer pH 7.0, analytical HPLC (Charts 1, 2); details: Tm^III; after 1 hour at 80° C.; MOPS/NaOH buffer pH 7.0
Reported conversion to 1,5-cz-[Ln(Lig)], Tm^III values for a set of molecules
Give a bare numeral; the unit % is implied.

Example entries and their recorded answers appear below.
C#Cc1cccc(CN2CCN(CC(=O)O)CCN(Cc3cccc(CN=[N+]=[N-])n3)CCN(CP(=O)(O)O)CC2)n1	40
C#Cc1cccc(CN2CCN(CC(=O)O)CCN(Cc3cc(C(=O)OC(C)C)cc(CN=[N+]=[N-])n3)CCN(CC(=O)O)CC2)n1	45
C#Cc1cccc(CN2CCN(CC(=O)O)CCN(Cc3cc(N(C)C)cc(CN=[N+]=[N-])n3)CCN(CC(=O)O)CC2)n1	63
C#Cc1cccc(CN2CCN(CP(=O)(O)OCC)CCN(Cc3cccc(CN=[N+]=[N-])n3)CCN(CP(=O)(O)OCC)CC2)n1	14
[N-]=[N+]=NCc1cccc(CN2CCN(CC(=O)O)CCN(Cc3cccc(C#Cc4ccccc4)n3)CCN(CC(=O)O)CC2)n1	1

Okay, now this molecule:
Suppose we examine the molecule CC(C)(C#Cc1cccc(CN2CCN(CC(=O)O)CCN(Cc3cccc(CN=[N+]=[N-])n3)CCN(CC(=O)O)CC2)n1)NC(=O)OC(C)(C)C ; what conversion to 1,5-cz-[Ln(Lig)], Tm^III value has been reported? 5

---

experiment: Dissociation of chelates in aq. 6.0M HCl at 80° C. (acid decomplexation kinetic inertness) (Chart 17); type: physicochemical; conditions: 1 month
reported-metric: fraction of intact chelate

Requested read-out: fraction of intact chelate. Entry: O=C([O-])CN1CCN2CCN(CC(=O)[O-])CCN(CC1)Cc1cccc(n1)-c1cnnn1Cc1cc(-c3ccccc3)cc(n1)C2.[Pb+2] 0%

Sample O=C1C[N@@]2CC[N@]3CC[N@@](CC[N@](CC2)Cc2cccc(n2)-c2cnnn2Cc2cc(-c4ccccc4)cc(n2)C3)CC(=O)[O][Tb][O]1 — what was its fraction of intact chelate? 0%

# input compound: O=C1C[N@@]2CC[N@]3CC[N@@](CC[N@](CC2)Cc2cccc(n2)-c2cn(nn2)Cc2cc(-c4ccccc4)cc(n2)C3)CC(=O)[O][Lu][O]1 ; wanted: its fraction of intact chelate 0%
